Biological target: c-Met (Homo sapiens, UniProt P08581)
Sequence (P08581 25-1390): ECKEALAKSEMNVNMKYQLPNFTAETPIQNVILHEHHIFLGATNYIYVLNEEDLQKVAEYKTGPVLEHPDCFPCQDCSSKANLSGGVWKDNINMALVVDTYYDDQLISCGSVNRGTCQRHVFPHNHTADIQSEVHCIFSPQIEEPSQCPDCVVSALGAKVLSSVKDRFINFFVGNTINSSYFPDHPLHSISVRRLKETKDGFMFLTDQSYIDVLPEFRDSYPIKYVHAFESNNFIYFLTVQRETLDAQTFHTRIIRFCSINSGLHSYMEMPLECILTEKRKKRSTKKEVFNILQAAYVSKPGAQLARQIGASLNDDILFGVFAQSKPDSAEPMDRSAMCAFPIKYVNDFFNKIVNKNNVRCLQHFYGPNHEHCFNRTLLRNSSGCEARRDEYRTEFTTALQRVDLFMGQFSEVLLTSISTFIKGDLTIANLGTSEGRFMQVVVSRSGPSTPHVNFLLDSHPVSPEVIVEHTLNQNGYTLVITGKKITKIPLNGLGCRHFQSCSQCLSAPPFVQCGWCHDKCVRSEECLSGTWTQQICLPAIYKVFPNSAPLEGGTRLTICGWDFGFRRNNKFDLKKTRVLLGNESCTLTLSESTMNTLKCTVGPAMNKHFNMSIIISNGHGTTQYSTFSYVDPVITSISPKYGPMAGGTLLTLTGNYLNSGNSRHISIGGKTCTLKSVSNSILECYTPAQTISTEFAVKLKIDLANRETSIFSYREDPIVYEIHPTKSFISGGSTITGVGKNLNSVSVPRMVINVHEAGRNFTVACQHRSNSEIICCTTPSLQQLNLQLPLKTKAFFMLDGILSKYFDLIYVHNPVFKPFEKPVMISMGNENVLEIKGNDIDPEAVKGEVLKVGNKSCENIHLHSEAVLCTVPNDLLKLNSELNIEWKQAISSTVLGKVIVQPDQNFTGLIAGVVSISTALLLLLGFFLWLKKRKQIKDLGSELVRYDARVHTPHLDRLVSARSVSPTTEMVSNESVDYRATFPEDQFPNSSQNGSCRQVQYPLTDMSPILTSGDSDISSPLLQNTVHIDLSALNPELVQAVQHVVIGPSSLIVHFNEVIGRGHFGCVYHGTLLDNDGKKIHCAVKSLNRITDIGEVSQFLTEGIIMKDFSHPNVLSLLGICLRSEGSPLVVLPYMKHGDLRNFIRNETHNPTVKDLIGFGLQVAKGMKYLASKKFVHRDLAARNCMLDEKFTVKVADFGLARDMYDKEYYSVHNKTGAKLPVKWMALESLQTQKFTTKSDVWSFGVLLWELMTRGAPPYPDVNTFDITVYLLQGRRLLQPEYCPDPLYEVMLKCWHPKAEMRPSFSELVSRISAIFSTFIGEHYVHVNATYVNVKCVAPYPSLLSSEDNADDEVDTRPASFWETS
Experiment: Ki determination for the inhibition of c-Met kinase activity (standard coupled enzyme system)
Assay type: biochemical
Conditions: coupled enzyme system, 200 μM ATP, 10 μM polyGluTyr, 80 nM c-Met, 30° C.; read-out: c-Met Ki
Method: Ki Determination for the Inhibition of c-Met Reactions were carried out in a solution containing 100 mM HEPES (pH 7.5), 10 mM MgCl2, 25 mM NaCl, 300 μM NADH, 1 mM DTT, and 1.5% DMSO. […] An assay stock buffer solution was prepared containing all of the reagents listed above with the exception of ATP and a test compound of the present invention. […] Rates of reaction were obtained using a Molecular Devices Spectramax plate reader (Sunnyvale, Calif.) over 10 minutes at 30° C. […]
observed_property: Ki

compound="CC(c1ccc(O)cc1)c1nnc2sc(Nc3cccc(F)c3F)nn12 (stereo not drawn)" observed_property=Ki measured_result="< 0.1 µM"
compound=COc1ccc([C@H](C)c2nnc3sc(Nc4cccc(F)c4)nn23)cc1 observed_property=Ki measured_result="0.1 to 2 µM"
compound=Oc1ccc(Cc2nnc3ccc(N4CCCCC4)nn23)cc1 observed_property=Ki measured_result="0.1 to 2 µM"

====

Biological target: UniProt:P08581
Experiment: Ki determination for the inhibition of c-Met kinase activity (standard coupled enzyme system)
Assay type: biochemical
Details: coupled enzyme system, 200 μM ATP, 10 μM polyGluTyr, 80 nM c-Met, 30° C.; read-out: c-Met Ki
observed_property: Ki

compound="Oc1ccc(Cc2nnc3sc(Nc4cccnc4)nn23)cc1F [Compound 83]" measured_result="100 to 2000 nM"
compound="C[C@@H](c1ccc(O)cc1)c1nnc2sc(Nc3cccc(F)c3)nn12 [Compound 105]" measured_result="< 100 nM"
compound="COc1ccc(Nc2nn3c(C(C)c4ccc(O)cc4)nnc3s2)cc1 (stereo not drawn) [Compound 40]" measured_result="< 100 nM"

====

Some molecules, each annotated with its measured Ki.
Molecular target: c-Met (Homo sapiens, UniProt P08581)
Experiment: Ki determination for the inhibition of c-Met kinase activity (standard coupled enzyme system)
Type: biochemical
Conditions: coupled enzyme system, 200 μM ATP, 80 nM c-Met, 30° C.; read-out: c-Met Ki
Protocol: Ki Determination for the Inhibition of c-Met Reactions were carried out in a solution containing 100 mM HEPES (pH 7.5), 10 mM MgCl2, 25 mM NaCl, 300 μM NADH, 1 mM DTT, and 1.5% DMSO. […] An assay stock buffer solution was prepared containing all of the reagents listed above with the exception of ATP and a test compound of the present invention. […] Rates of reaction were obtained using a Molecular Devices Spectramax plate reader (Sunnyvale, Calif.) over 10 minutes at 30° C. […]
observed_property: Ki

structure_smiles=OCCc1cccc(Nc2ccc3nnc(Cc4ccc(O)c(Cl)c4)n3n2)c1 tested_target="c-Met (Homo sapiens, UniProt P08581)" measured_result="0.1 to 2 µM"
structure_smiles=Oc1ccc(Cc2nnc3ccc(Nc4nncs4)nn23)cc1 tested_target="c-Met (Homo sapiens, UniProt P08581)" measured_result="> 2 µM"
structure_smiles=COc1ccc(Cc2nnc3ccc(Nc4cccc(Cl)c4)nn23)cc1C(N)=O tested_target="c-Met (Homo sapiens, UniProt P08581)" measured_result="> 2 µM"
structure_smiles=CC(C)Oc1ccc(NCc2nnc3ccc(Nc4cccc(Cl)c4)nn23)cc1 tested_target="c-Met (Homo sapiens, UniProt P08581)" measured_result="> 2 µM"
structure_smiles=CC[C@H](CO)Nc1ccc2nnc(Cc3ccc(O)cc3)n2n1 tested_target="c-Met (Homo sapiens, UniProt P08581)" measured_result="0.1 to 2 µM"
structure_smiles=Clc1cccc(Nc2ccc3nnc(COc4ccc5cccnc5c4)n3n2)c1 tested_target="c-Met (Homo sapiens, UniProt P08581)" measured_result="< 0.1 µM"
structure_smiles=CCc1cccc(Nc2ccc3nnc(Cc4ccc(O)c(Cl)c4)n3n2)c1 tested_target="c-Met (Homo sapiens, UniProt P08581)" measured_result="0.1 to 2 µM"

====

Molecular target: c-Met (Homo sapiens, UniProt P08581)
Experiment: Ki determination for the inhibition of c-Met kinase activity (standard coupled enzyme system)
Type: biochemical
Conditions: coupled enzyme system, 200 μM ATP, 10 μM polyGluTyr, 80 nM c-Met, 30° C.; read-out: c-Met Ki
Description: Ki Determination for the Inhibition of c-Met Reactions were carried out in a solution containing 100 mM HEPES (pH 7.5), 10 mM MgCl2, 25 mM NaCl, 300 μM NADH, 1 mM DTT, and 1.5% DMSO. […] An assay stock buffer solution was prepared containing all of the reagents listed above with the exception of ATP and a test compound of the present invention. […] Rates of reaction were obtained using a Molecular Devices Spectramax plate reader (Sunnyvale, Calif.) over 10 minutes at 30° C. […]
pKi: −log10 of the molar value.
observed_property: pKi

molecule="CC(C)(C)c1cccc(Nc2ccc3nnc(Cc4ccc(O)cc4)n3n2)c1 [Compound 182]" measured_result="> 7.00"
molecule="Fc1cccc(Nc2ccc3nnc(Cc4ccc5c(c4)OCO5)n3n2)c1 [Compound 286]" measured_result="> 7.00"
molecule="Cc1cc(C)cc(Nc2ccc3nnc(Cc4ccncc4)n3n2)c1 [Compound 249]" measured_result="< 5.70"
molecule="OCCc1cccc(Nc2ccc3nnc(Cc4ccc(O)c(F)c4)n3n2)c1 [Compound 265]" measured_result="5.70 to 7.00"
molecule="Cc1ccc(F)cc1Nc1nn2c(Cc3ccc(O)cc3)nnc2s1 [Compound 75]" measured_result="> 7.00"
molecule="CC(O)c1cccc(Nc2ccc3nnc(Cc4ccc5c(c4)OCO5)n3n2)c1 (stereo not shown) [Compound 258]" measured_result="5.70 to 7.00"
molecule="Cc1cccc(Nc2nn3c(Cc4ccc(O)cc4)nnc3s2)c1 [Compound 44]" measured_result="> 7.00"
molecule="CCc1cccc(Nc2ccc3nnc(Cc4ccncc4)n3n2)c1 [Compound 222]" measured_result="< 5.70"
molecule="Oc1ccc(Cc2nnc3ccc(N[C@H]4CC[C@H](O)CC4)nn23)cc1 [Compound 272]" measured_result="5.70 to 7.00"
molecule="c1csc(-c2nn3c(Cc4ccc5c(c4)OCO5)nnc3s2)c1 [Compound 2]" measured_result="5.70 to 7.00"
molecule="Clc1ccccc1Nc1nn2c(Cc3ccc4c(c3)OCO4)nnc2s1 [Compound 68]" measured_result="5.70 to 7.00"
molecule="COc1ccc([C@H](C)c2nnc3sc(Nc4cccc(Cl)c4)nn23)cc1 [Compound 157]" measured_result="5.70 to 7.00"
molecule="Oc1ccc(Cc2nnc3sc(Nc4cccc(F)c4)nn23)cc1F [Compound 108]" measured_result="> 7.00"
molecule="COc1ccc(Nc2nn3c(Cc4ccc5c(c4)OCO5)nnc3s2)cc1 [Compound 65]" measured_result="5.70 to 7.00"
molecule="COc1ccc(Cc2nnc3sc(-c4cccs4)nn23)cc1 [Compound 22]" measured_result="5.70 to 7.00"
molecule="COc1ccc(Cc2nnc3sc(-c4ccccc4)nn23)cc1 [Compound 3]" measured_result="< 5.70"
molecule="OCc1cccc(Nc2ccc3nnc(Cc4ccc5c(c4)OCO5)n3n2)c1 [Compound 263]" measured_result="5.70 to 7.00"
molecule="CC(Oc1ccc2ncccc2c1)c1nnc2sc(Nc3cccc(Cl)c3)nn12 (stereo not shown) [Compound 163]" measured_result="< 5.70"
molecule="Clc1ccc(Cc2nnc3sc(Nc4cccc(Cl)c4)nn23)cc1 [Compound 91]" measured_result="< 5.70"
molecule="O=C1CCCN1CCCNc1ccc2nnc(Cc3ccc(O)cc3)n2n1 [Compound 199]" measured_result="< 5.70"
molecule="Oc1cccc(CCc2nnc3sc(Nc4cccc(Cl)c4)nn23)c1 [Compound 92]" measured_result="< 5.70"
molecule="Fc1cc(F)cc(Nc2nn3c(Cc4ccc5c(c4)OCO5)nnc3s2)c1 [Compound 127]" measured_result="> 7.00"
molecule="COc1cc(Cc2nnc3sc(Nc4cccnc4)nn23)ccc1O [Compound 51]" measured_result="< 5.70"
molecule="O=c1ccn(Cc2nnc3ccc(-c4ccccc4)nn23)cc1 [Compound 218]" measured_result="< 5.70"
molecule="c1ccc([C@@H]2C[C@H]2c2nn3c(Cc4ccc5c(c4)OCO5)nnc3s2)cc1 [Compound 47]" measured_result="< 5.70"
molecule="CC(C)[C@H](C)Nc1ccc2nnc(Cc3ccc(O)cc3)n2n1 [Compound 193]" measured_result="5.70 to 7.00"
molecule="COC(=O)c1ccccc1Nc1nn2c(Cc3ccc(O)cc3)nnc2s1 [Compound 69]" measured_result="< 5.70"
molecule="COc1cccc(Nc2nn3c(Cc4ccc5c(c4)OCO5)nnc3s2)c1 [Compound 34]" measured_result="5.70 to 7.00"

====

Biological target: UniProt P08581
Assay: Ki determination for the inhibition of c-Met kinase activity (standard coupled enzyme system)
Format: biochemical
Details: coupled enzyme system, 200 μM ATP, 10 μM polyGluTyr, 80 nM c-Met, 30° C.; read-out: c-Met Ki
pKi: −log10 of the molar value.
Some compounds, each annotated with its measured pKi.
observed_property: pKi

compound="COc1ccc(Cc2nnc3ccc(Nc4cccc(Cl)c4)nn23)cc1 [Compound 238]" observed_property=pKi measured_result="> 7.00"
compound="COc1ccc(Cc2nnc3ccc(Nc4cccc(CO)c4)nn23)cc1 [Compound 262]" observed_property=pKi measured_result="5.70 to 7.00"
compound="Oc1ccc(Cc2nnc3sc(NCc4cccnc4)nn23)cc1 [Compound 9]" observed_property=pKi measured_result="5.70 to 7.00"
compound="Oc1ccc(Cc2nnc3sc(NCCN4CCOCC4)nn23)cc1 [Compound 15]" observed_property=pKi measured_result="< 5.70"
compound="c1ccc(-c2ccc3nnc(CNc4ccncc4)n3n2)cc1 [Compound 211]" observed_property=pKi measured_result="< 5.70"
compound="Oc1ccc(Cc2nnc3ccc(-c4ccccc4)nn23)cc1F [Compound 213]" observed_property=pKi measured_result="5.70 to 7.00"
compound="COc1ccccc1Nc1nn2c(C(C)c3ccc(O)cc3)nnc2s1 (stereo not shown) [Compound 32]" observed_property=pKi measured_result="5.70 to 7.00"
compound="COc1ccc(Cc2nnc3sc(CNC(C)=O)nn23)cc1 [Compound 23]" observed_property=pKi measured_result="< 5.70"
compound="COc1ccc(Nc2nn3c(Cc4ccc(O)c(F)c4)nnc3s2)cc1 [Compound 64]" observed_property=pKi measured_result="5.70 to 7.00"
compound="C[C@@H](c1ccc(OC(=O)[C@@H](C)N)cc1)c1nnc2sc(Nc3cccc(Cl)c3)nn12 [Compound 167]" observed_property=pKi measured_result="> 7.00"
